Molecular target: thrombin (Homo sapiens, UniProt P00734)
Construct: consists of two polypeptide chains of 36 (light chain) and 259 amino acid
Assay: Determination of Kis of purified thrombin inhibitors (IC50, Cheng-Prusoff)
Type: biochemical
Conditions: thrombin; replicate 1; read-out: IC50 (nM) Replicate 1
Please provide measured IC50 for the entries that follow.
Expressed in nM, but write only the number.

Per the record, CC(C)C1NC(=O)CCSCSCCNC(=O)C(CNC(=O)c2ccc(Cl)s2)NC(=O)c2cccc(c2)CNC1=O (stereo not shown) [M4] has IC50 of 119

Per the record, O=C1CCSSCCNC(=O)C(CNC(=O)c2ccc(Cl)s2)NC(=O)c2cccc(c2)CNC(=O)C(Cc2ccccc2)N1 (stereo not shown) [M2] has IC50 of 270

Per the record, CC(C)[C@H]1NC(=O)CCSSCCNC(=O)[C@H](CNC(=O)c2ccc(Cl)s2)NC(=O)c2cccc(c2)CNC1=O [M1] has IC50 of 59

Per the record, CC(C)[C@@H]1NC(=O)CCSSCCNC(=O)[C@H](CNC(=O)c2ccc(Cl)s2)NC(=O)c2cccc(c2)CNC1=O [M3] has IC50 of 170
